Every entry's value here was drawn from ChEMBL document CHEMBL1129453.

# target.entity: 5-hydroxytryptamine receptor 1B (Rattus norvegicus)
# Sequence (P28564 whole entry): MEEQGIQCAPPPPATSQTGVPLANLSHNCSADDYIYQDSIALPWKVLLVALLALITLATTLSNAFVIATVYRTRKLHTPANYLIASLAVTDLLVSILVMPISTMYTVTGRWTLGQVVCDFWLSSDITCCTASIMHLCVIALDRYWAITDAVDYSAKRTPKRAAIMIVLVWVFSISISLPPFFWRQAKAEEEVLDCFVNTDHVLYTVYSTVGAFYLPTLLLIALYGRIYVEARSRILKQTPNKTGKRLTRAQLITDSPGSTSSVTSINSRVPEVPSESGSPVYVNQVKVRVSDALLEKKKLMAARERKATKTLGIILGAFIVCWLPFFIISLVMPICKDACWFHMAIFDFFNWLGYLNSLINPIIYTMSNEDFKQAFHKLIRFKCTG
# procedure.text: Binding affinity to 5-HT1B receptors using rat cortex+striatum + globus pallidus,[3H]-5-OH-tryptamine, and serotonin for NSB
IC50: recorded values
observable: IC50

molecule	recorded.measurement
COc1cccc2c1CC1(CCC(=O)N1)CO2 (centres undefined)	> 10 µM
CCCN1CCCC12COc1cccc(O)c1C2 (centres undefined)	> 100 µM
CCCN1CCCC12COc1ccccc1C2 (centres undefined)	> 1000 µM
CCCN1C(=O)CCC12COc1cccc(OC)c1C2 (centres undefined)	> 100 µM

====

# target.entity: Serotonin 3 receptor (5HT3) (Mus musculus, UniProt Q9JHJ5+P23979)
# procedure.text: Displacement of [3H]-BRC 36694 from 5-hydroxytryptamine 3 receptor in NG108-15 cells
# Assay type: cell-based
IC50: recorded values

molecule	IC50
COc1cccc2c1CC1(CCCN1)CO2 (stereo not given)	10.2 µM
CCCN1C(=O)CCC12COc1cccc(OC)c1C2 (stereo not given)	> 100 µM
CCCN1CCCC12COc1cccc(OC)c1C2 (stereo not given)	3.59 µM
CCCN1CCCCC12COc1cccc(OC)c1C2 (stereo not given)	14.9 µM
COc1cccc2c1CC1(CCCN1CCCCN1C(=O)CC3(CCCC3)CC1=O)CO2 (single isomer, unassigned; (-))	10.6 µM
COc1cccc2c1CC1(CCCN1C(C)=O)CO2 (stereo not given)	> 100 µM
CCCN1CCCC12COc1ccccc1C2 (stereo not given)	14.5 µM
COc1cccc2c1CC1(CCCN1CCCCN1C(=O)CC3(CCCC3)CC1=O)CO2 (stereo in doubt; 11a)	30.7 µM
CCCN1CCCC12COc1cccc(OCCCCN3C(=O)CC4(CCCC4)CC3=O)c1C2 (stereo not given)	3.97 µM
O=C1CC2(CCCC2)CC(=O)N1CCCCN1CCCC12COc1ccccc1C2 (stereo not given)	12.5 µM

====

# target.entity: D(2) dopamine receptor (Bos taurus, UniProt P20288)
# Sequence (P20288 whole entry): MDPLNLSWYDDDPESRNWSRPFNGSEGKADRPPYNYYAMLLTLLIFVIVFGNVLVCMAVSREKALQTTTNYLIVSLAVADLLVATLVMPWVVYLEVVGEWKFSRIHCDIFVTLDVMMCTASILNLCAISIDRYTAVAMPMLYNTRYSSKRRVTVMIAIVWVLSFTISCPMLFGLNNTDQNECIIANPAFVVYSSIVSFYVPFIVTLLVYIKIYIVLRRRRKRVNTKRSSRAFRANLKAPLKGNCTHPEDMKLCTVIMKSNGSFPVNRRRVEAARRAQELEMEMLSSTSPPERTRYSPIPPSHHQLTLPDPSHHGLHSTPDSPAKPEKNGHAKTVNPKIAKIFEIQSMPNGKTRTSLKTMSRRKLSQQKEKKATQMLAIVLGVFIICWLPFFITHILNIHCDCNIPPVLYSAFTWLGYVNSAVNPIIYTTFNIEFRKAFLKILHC
# procedure.text: Displacement of [3H]SDZ-205-501 from Dopamine receptor D2 in calf caudate nucleus.
pIC50: −log10 of the molar value.
pIC50: recorded values

compound	pIC50
CCCN1CCCC12COc1cccc(OC)c1C2 (stereo not given)	5.18
COc1cccc2c1CC1(CCCCN1CCCCNS(=O)(=O)c1ccc(C)cc1)CO2 (stereo not given)	5.37
COc1cccc2c1CC1(CCCCN1CCCCNC(=O)c1ccc(F)cc1)CO2 (stereo not given)	5.37
COc1cccc2c1CC1(CCCN1CCCCN1C(=O)CC3(CCCC3)CC1=O)CO2 (single isomer, unassigned; (+))	5.88
CCCN(CCCCN1C(=O)CC2(CCCC2)CC1=O)C1COc2cccc(OC)c2C1 (single isomer, unassigned; (+))	7.70
